target: human RIP1 kinase domain (2-375) (Homo sapiens (Human), UniProt Q13546); experiment: biochemical; assay type: biochemical; conditions: human RIP1 kinase domain (2-375), Transcreener ADP assay, 50 uM ATP, 2 hours incubation; read-out: RIP1 Ki
Sequence (Q13546 2-375): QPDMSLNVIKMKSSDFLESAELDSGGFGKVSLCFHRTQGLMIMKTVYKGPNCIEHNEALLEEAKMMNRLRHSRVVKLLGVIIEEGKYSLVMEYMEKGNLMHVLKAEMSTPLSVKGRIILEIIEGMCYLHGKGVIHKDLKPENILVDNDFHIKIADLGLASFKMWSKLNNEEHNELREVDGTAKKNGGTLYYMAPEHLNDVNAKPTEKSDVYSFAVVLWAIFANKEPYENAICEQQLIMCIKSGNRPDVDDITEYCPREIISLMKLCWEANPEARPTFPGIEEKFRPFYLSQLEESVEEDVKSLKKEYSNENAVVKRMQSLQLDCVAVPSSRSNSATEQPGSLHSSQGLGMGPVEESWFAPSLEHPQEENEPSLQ
Please assign False whenever Ki is at or above 3000 nM, and True whenever it is below.

{"columns": ["compound", "target-entity", "answer-label"],
 "data": [
  ["CC(c1cnc2[nH]nc(C(=O)N[C@H]3COc4ccccc4N(C)C3=O)c2c1)C(F)(F)F (some centres unmarked)", "human RIP1 kinase domain (2-375) (Homo sapiens (Human), UniProt Q13546)", "True"],
  ["Cc1cc2n(n1)CCC(NC(=O)c1ncn(CC3CCC3)n1)C(=O)N2C (centres unmarked)", "human RIP1 kinase domain (2-375) (Homo sapiens (Human), UniProt Q13546)", "True"],
  ["CC[C@@]1(C)OCc2cnc(C(=O)N[C@H]3CCn4nc([C@@H]5CC5(F)F)cc4N(C)C3=O)cc21", "human RIP1 kinase domain (2-375) (Homo sapiens (Human), UniProt Q13546)", "False"],
  ["CC[C@@]1(C)OCc2cnc(C(=O)NC3CCn4nc(C5CCOCC5)cc4N(C)C3=O)cc21 (some centres unmarked)", "human RIP1 kinase domain (2-375) (Homo sapiens (Human), UniProt Q13546)", "False"],
  ["Cc1cc2n(n1)CCC(NC(=O)c1ncn(CCC(F)(F)F)n1)C(=O)N2C (centres unmarked)", "human RIP1 kinase domain (2-375) (Homo sapiens (Human), UniProt Q13546)", "True"],
  ["CN1C(=O)[C@H](NC(=O)c2ncn(Cc3ccc(F)c(F)c3)n2)CCn2nc([C@H]3CC3(F)F)cc21", "human RIP1 kinase domain (2-375) (Homo sapiens (Human), UniProt Q13546)", "True"],
  ["Cc1cc(Cn2cnc(C(=O)NC3CCn4nc(C5CC5)cc4N(C)C3=O)n2)ccn1 (centres unmarked)", "human RIP1 kinase domain (2-375) (Homo sapiens (Human), UniProt Q13546)", "False"],
  ["Cc1cc2n(n1)CCC(NC(=O)c1ncn(CC3CCC(F)(F)CC3)n1)C(=O)N2C (centres unmarked)", "human RIP1 kinase domain (2-375) (Homo sapiens (Human), UniProt Q13546)", "True"]
]}
